growth values, listed per item
# System: UO-31 renal
# TEST_METHOD_NOTES: NCI-60 one-dose screen, 48 h (100 = growth as untreated, 0 = no growth, -100 = all killed)
# ASSAY_CONDITIONS: 10 µM unless noted
About 83,000 compounds went through this panel and 20% of them were active in at least one assay; those are over-represented in the sample as a whole.
Write the value in % as a bare number.

# example entries with known answers
COMPOUND: COc1cc(OC)c(C(=O)C(CN(C)C)CN(C)C)cc1OC
MEASUREMENT_TYPE: growth
VALUE_UNIT: %
OBSERVED_VALUE: 10.4
//
COMPOUND: Cn1ccc(=O)nc1
MEASUREMENT_TYPE: growth
VALUE_UNIT: %
OBSERVED_VALUE: 73.4

Please turn your attention to the following entry.
Hello, please tell me recorded growth for this one: O=C1C(Nc2ccccn2)=C(I)C(=O)c2ncccc21
-97.7

====

# System: OVCAR-5 ovarian
# TEST_METHOD_NOTES: NCI-60 one-dose screen, 48 h (100 = growth as untreated, 0 = no growth, -100 = all killed)
# ASSAY_CONDITIONS: 10 µM unless noted
This is part of a sample that, as a whole, favours compounds with a hit. Of some 83,000 tested, about 20% had one in any assay.
growth values, listed per item
Write the value in % as a bare number.

MOLECULE: O=C(CN1CCN(c2cc3c(cc2F)c(=O)c(C(=O)O)cn3C2CC2)CC1)N/N=C/c1ccco1
OBSERVED_VALUE: 85.1

MOLECULE: CN(CCCNC(=O)CCOCCOCCOCCNC(=O)Cc1ccc2ccc3cccc4ccc1c2c34)CCCNc1cc(-c2ccc3ccccc3c2)nc2ccccc12
OBSERVED_VALUE: -86.4

MOLECULE: COc1ccc(C2CC(c3cc(OC)c(OC)c(OC)c3)=NO2)cc1OCCCCOc1cc2c(cc1OC)C(=O)N1CCC[C@H]1C=N2 (stereo partly drawn)
OBSERVED_VALUE: 17.9

MOLECULE: O=C(/C=C(O)/C=C/c1cccc2[nH]ccc12)/C=C/c1cccc2[nH]ccc12
OBSERVED_VALUE: 99.7

MOLECULE: CC1=C2[C@@H](CC1)[C@]1(C)O[C@@](C3CCCCC3)(C[C@H]1OC(=O)CO)[C@H]2OC(=O)/C=C/c1ccccc1
OBSERVED_VALUE: 88.8

Hello, please tell me recorded growth for this one: CN(C)CCCC1(c2ccc(F)cc2)OCc2cc(-c3ccc4cc[nH]c4c3)ccc21 (stereo not drawn)
84.4

Hello, please tell me recorded growth for this one: CCOC(=O)CC1CSC(Nc2ccccc2)=N1 (stereo not drawn)
104

Hello, please tell me recorded growth for this one: Cc1c(CN)cc(-c2ccc(Cl)cc2)n1-c1ccccc1
80.9

====

# System: EKVX NSCLC
# TEST_METHOD_NOTES: NCI-60 one-dose screen, 48 h
# ASSAY_CONDITIONS: 10 µM unless noted
The panel holds about 83,000 compounds, 20% with a hit somewhere; the sample as a whole holds those more often. Activity calls are given as the source filed them. Rule for the calls: active = growth percent below 10; inactive = the rest.
Returns: one label drawn from true (active), false (inactive)

COMPOUND: CCN1C2CCC1/C(=C\c1ccc(F)cc1)C(=O)/C2=C/c1ccc(F)cc1
TARGET_OR_TEST_SYSTEM: EKVX NSCLC
GROUP_LABEL: false

What outcome does the record of this test show for CC/C(Cc1ccccc1)=C(\c1ccc(OCCCN(C)C)cc1)c1ccc(OC(=O)NCc2ccccc2)cc1 ?
false

What outcome does the record of this test show for COc1cc(/C=C/C(=O)c2ccc(-n3cc(CN4CCN(c5cc6c(cc5F)c(=O)c(C(=O)O)cn6C5CC5)CC4)nn3)cc2)ccc1O ?
false

What outcome does the record of this test show for C#CC#CC#CC#CC#CC#CC#CC#CCC1OC[C@H](COC(=O)O[C@@H](C(=O)O[C@H]2C[C@@]3(O)[C@@H](OC(=O)c4ccccc4)[C@@H]4[C@]5(OC(C)=O)CO[C@@H]5C[C@H](O)[C@@]4(C)C(=O)[C@H](OC(C)=O)C(=C2C)C3(C)C)[C@@H](NC(=O)c2ccccc2)c2ccccc2)O1 (stereo partly specified) ?
false

What outcome does the record of this test show for Cn1ccc(=O)nc1 ?
false

What outcome does the record of this test show for O=C(Nc1cc(Cl)ccc1O)c1cccc(Nc2ccnc(C(F)(F)F)c2)c1 ?
true
